Where these numbers come from: patent US10278942B2

# Assay system: HIF-2α HIS TAG-PASB Domain (Homo sapiens, UniProt Q99814)
# Construct: 100 nM HIF-2α HIS TAG-PASB Domain
# Sequence (Q99814 240-350 limits assumed): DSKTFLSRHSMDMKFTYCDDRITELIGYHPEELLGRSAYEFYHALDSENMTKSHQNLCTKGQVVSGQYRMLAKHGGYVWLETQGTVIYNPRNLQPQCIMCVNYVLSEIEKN
# Assay protocol: HIF-2α Scintillation Proximity Assay (SPA)
# Type: binding
# Condition: read-out: Scintillation Proximity Assay IC50
As shown below, each of these compounds has a reported IC50 value.

Some solved cases for reference:
- Compound: "O=S(=O)(c1ccc(Oc2c(F)ccc3[nH]ncc23)c2c1[C@H](O)C(F)(F)C2)C(F)(F)F"
  Experimental endpoint: "IC50"
  Result: "250 to 1000 nM"
- Compound: "CC1(C)C[C@@H](O)C[C@H](c2ccc(S(=O)(=O)C(F)(F)F)c3c2CC(F)(F)[C@H]3O)C1"
  Experimental endpoint: "IC50"
  Result: "> 1000 nM"
- Compound: "CS(=O)(=O)c1ccc(Oc2cc(F)cc(C#N)c2)c2c1[C@H](O)C(F)(F)[C@@H]2O"
  Experimental endpoint: "IC50"
  Result: "50 to 249 nM"
- Compound: "O/N=C1\\CCc2c(OCC(F)F)ccc(C(F)(F)F)c21"
  Experimental endpoint: "IC50"
  Result: "> 1000 nM"
- Compound: "CS(=O)(=O)c1ccc(Oc2cc(F)cc(C#N)c2)c2c1C(O)CCC2 (centres unmarked)"
  Experimental endpoint: "IC50"
  Result: "> 1000 nM"

stdin: Need IC50, item "CS(=O)(=O)c1ccc(Oc2cncc(C#N)c2)c2c1[C@H](O)C(F)(F)[C@H]2F"
stdout: > 1000 nM

stdin: Another compound to look at: "N#Cc1cncc(Nc2ccc(S(=O)(=O)C(F)(F)F)c3c2CC(F)(F)[C@H]3O)c1"
stdout: 50 to 249 nM

stdin: Another compound to look at: "N#Cc1cc(F)cc(Oc2ccc(S(=O)(=O)C(F)(F)F)cc2Br)c1"
stdout: 50 to 249 nM

----------
# Assay system: HIF-2α HIS TAG-PASB Domain (Homo sapiens)
# Construct: 100 nM HIF-2α HIS TAG-PASB Domain
# Assay protocol: HIF-2α Scintillation Proximity Assay (SPA)
# Type: binding
# Condition: read-out: Scintillation Proximity Assay IC50
# Method: The total assay volume was about 100 μL in the following configuration: 2 μL compound in 100% DMSO, 88 μL buffer with protein and probe and 10 μL of SPA beads. […] The percent inhibition was determined and IC50 values were calculated using the Dotmatics system based on the following equation: % inhibition=[(high control−sample)/(high control−low control)]×100.
Experimental endpoint: IC50

Some solved cases for reference:
- Molecule: "O=S(=O)(c1ccc(-c2ccccc2)c2c1[C@H](O)C(F)(F)C2)C(F)(F)F"
  Assay system: "HIF-2α HIS TAG-PASB Domain (Homo sapiens)"
  Experimental endpoint: "IC50"
  Result: "250 to 1000 nM"
- Molecule: "O=S(=O)(c1ccc(Oc2cc(F)cc3[nH]ncc23)c2c1C(O)C(F)(F)C2)C(F)(F)F (centres unmarked)"
  Assay system: "HIF-2α HIS TAG-PASB Domain (Homo sapiens)"
  Experimental endpoint: "IC50"
  Result: "> 1000 nM"
- Molecule: "O[C@H]1c2c(C(F)(F)F)ccc(OC3CC(F)(F)C3)c2CC1(F)F"
  Assay system: "HIF-2α HIS TAG-PASB Domain (Homo sapiens)"
  Experimental endpoint: "IC50"
  Result: "< 50 nM"
- Molecule: "N#CC1(COc2ccc(S(=O)(=O)C(F)(F)F)c3c2CC(F)(F)[C@H]3O)CC1"
  Assay system: "HIF-2α HIS TAG-PASB Domain (Homo sapiens)"
  Experimental endpoint: "IC50"
  Result: "< 50 nM"
- Molecule: "CCc1ccc(S(=O)(=O)C(F)(F)F)c2c1CCC2O (centres unmarked)"
  Assay system: "HIF-2α HIS TAG-PASB Domain (Homo sapiens)"
  Experimental endpoint: "IC50"
  Result: "> 1000 nM"

stdin: Need IC50, item "CS(=O)(=O)c1ccc(Oc2ccc(F)c(C#N)c2)c2c1[C@H](O)C(F)(F)[C@@H]2F"
stdout: < 50 nM

stdin: Another molecule to look at: "O=S(=O)(c1ccc(Oc2cccc(C(F)(F)F)c2)c(Br)c1CO)C(F)F"
stdout: > 1000 nM

stdin: Another molecule to look at: "CC(C)CCOc1ccc(S(=O)(=O)C(F)(F)F)c2c1CC(F)(F)[C@H]2O"
stdout: 50 to 249 nM

----------
As shown below, each of these compounds has a reported pIC50 value.
# Assay system: HIF-2α HIS TAG-PASB Domain (Homo sapiens, UniProt Q99814)
# Construct: 100 nM HIF-2α HIS TAG-PASB Domain
# Assay protocol: HIF-2α Scintillation Proximity Assay (SPA)
# Format: binding
# Condition: read-out: Scintillation Proximity Assay IC50
pIC50: −log10 of the molar value.

Some solved cases for reference:
- Compound: "O=S1(=O)CC(O)c2c1ccc(Oc1cc(F)cc(Cl)c1)c2C(F)F (stereo not shown) [Compound 361]"
  pIC50: "6.60 to 7.30"
- Compound: "O=S(=O)(c1ccc(OC2CCCNC2)c2c1[C@H](O)C(F)(F)C2)C(F)(F)F (stereo partly shown) [Compound 797]"
  pIC50: "< 6.00"
- Compound: "Nc1ccc(Cl)cc1-c1ccc(S(=O)(=O)C(F)(F)F)c2c1CC(F)(F)[C@H]2O [Compound 540]"
  pIC50: "< 6.00"
- Compound: "COc1cc(F)cc(Oc2ccc3c(c2Br)[C@@H](O)C(F)(F)S3(=O)=O)c1 [Compound 426]"
  pIC50: "6.60 to 7.30"
- Compound: "CC(=O)c1c(S(=O)(=O)C(F)(F)F)ccc(Oc2cc(F)cc(C#N)c2)c1C#N [Compound 79]"
  pIC50: "< 6.00"

stdin: Need pIC50, item Cc1nnc(/C=C/c2c(S(=O)(=O)C(F)(F)F)ccc(Oc3cc(F)cc(C#N)c3)c2C)o1 [Compound 151]
stdout: < 6.00

stdin: Another compound to look at: CC1(O)c2c(S(=O)(=O)C(F)F)ccc(Oc3cc(F)cc(C#N)c3)c2CC1(F)F (stereo not shown) [Compound 13]
stdout: < 6.00

stdin: Another compound to look at: N#Cc1cc(F)cc(Oc2ccc(S(=N)(=O)C(F)(F)F)c3c2CCC3O)c1 (stereo not shown) [Compound 259]
stdout: < 6.00

stdin: Another compound to look at: O=S(=O)(c1ccc(Oc2cc(F)cc(Cl)c2)c(Br)c1CNCc1ccccc1)C(F)(F)F [Compound 110]
stdout: < 6.00

stdin: Another compound to look at: O=S(=O)(c1ccc(C2=CC(O)CCC2)c2c1[C@H](O)C(F)(F)C2)C(F)(F)F (stereo partly shown) [Compound 481]
stdout: 6.00 to 6.60

stdin: Another compound to look at: Cn1nccc1-c1ccc(S(=O)(=O)C(F)(F)F)c2c1CC(F)(F)[C@H]2O [Compound 559]
stdout: < 6.00

stdin: Another compound to look at: CC(Oc1ccc(S(=O)(=O)C(F)(F)F)c2c1CC(F)(F)C2O)C(=O)N(C)C (stereo not shown) [Compound 647]
stdout: < 6.00

stdin: Another compound to look at: CS(=O)(=O)c1ccc(OCC2CC2)c2c1[C@H](O)C(F)(F)C2 [Compound 779]
stdout: < 6.00

stdin: Another compound to look at: CS(=O)(=O)c1ccc(Nc2ccc(F)cc2)c2c1C(O)C(F)(F)C2 (stereo not shown) [Compound 501]
stdout: < 6.00

stdin: Another compound to look at: O=C1c2c(S(=O)(=O)C(F)F)ccc(Oc3ccc(F)c(F)c3)c2CC1(F)F [Compound 195]
stdout: 6.60 to 7.30

stdin: Another compound to look at: O=S(=O)(c1ccc([C@@H]2CCC[C@@H](O)C2)c2c1[C@H](O)C(F)(F)C2)C(F)(F)F [Compound 480]
stdout: 6.60 to 7.30

----------
As shown below, each of these molecules has a reported IC50 value.
# Assay system: HIF-2α HIS TAG-PASB Domain (Homo sapiens)
# Construct: 100 nM HIF-2α HIS TAG-PASB Domain
# Assay protocol: HIF-2α Scintillation Proximity Assay (SPA)
# Format: binding
# Condition: read-out: Scintillation Proximity Assay IC50

Some solved cases for reference:
- Molecule: "COc1ccc(I)c2c1CC(F)(F)C2O (centres unmarked)"
  Result: "> 1000 nM"
- Molecule: "CS(=O)(=O)c1ccc(Nc2cc(F)cc(C#N)c2)c2c1C(O)C(F)(F)C2 (centres unmarked)"
  Result: "> 1000 nM"
- Molecule: "O[C@H]1c2c(C(F)(F)F)ccc(OCC(F)F)c2CC1(F)F"
  Result: "< 50 nM"
- Molecule: "CCS(=O)(=O)c1ccc(Oc2cc(F)cc(C#N)c2)c2c1C(O)CC2 (centres unmarked)"
  Result: "> 1000 nM"
- Molecule: "CC1(C)CC[C@@H](O)[C@@H](c2ccc(S(=O)(=O)C(F)(F)F)c3c2CC(F)(F)[C@H]3O)C1"
  Result: "50 to 249 nM"
- Molecule: "N#Cc1cccc(Oc2ccc(S(=O)(=O)C(F)F)c(C#N)c2Cl)c1"
  Result: "250 to 1000 nM"

stdin: Need IC50, item O=S(=O)(c1ccc(C2CC2)c2c1C(O)CC2)C(F)(F)F (centres unmarked)
stdout: > 1000 nM

stdin: Another molecule to look at: "O=S(=O)(c1ccc(O[C@H]2CCCc3cn[nH]c32)c2c1[C@H](O)C(F)(F)C2)C(F)(F)F"
stdout: > 1000 nM
